The entries below are paired with their reported residual activity.
target: WEE1 (human); assay: radiometric filter-binding kinase assay, Kinase HotSpot; conditions: compound 0.5 µM; ATP 10 µM
The response must be a number in % with no trailing unit.

Here are 4 molecules together with their reported answers.
For WEE1 (human), give the measured residual activity of the entry CC[n+]1c(/C=C/N(C)c2ccccc2)n(-c2ccccc2)c2ccc(-c3nc4ccccc4s3)cc21
92.4

For WEE1 (human), give the measured residual activity of the entry CC(=O)c1ccc(N2CCOCC2)cc1O
97.5

For WEE1 (human), give the measured residual activity of the entry O=C1Nc2ccc(Cl)cc2/C1=C/c1cc(Cl)c(O)c(Cl)c1
79.1

For WEE1 (human), give the measured residual activity of the entry O=C(Nc1cccc(Nc2nccc(Nc3cccc(C(F)(F)F)c3)n2)c1)C1CC1
95.6

More entries:
For WEE1 (human), give the measured residual activity of the entry c1ccc(-c2n[nH]c3c2oc2ccccc23)cc1
92.6

For WEE1 (human), give the measured residual activity of the entry CCN(CC)C(=O)c1ccc(Nc2nc(OCC3CCCCC3)c3nc[nH]c3n2)cc1
110
